- Test System: matriptase (Homo sapiens, UniProt Q9Y5Y6)
- Construct: purchased R&D Systems (Bio-Techne) 3946-SEB
- Sequence (Q9Y5Y6 615-855 limits assumed): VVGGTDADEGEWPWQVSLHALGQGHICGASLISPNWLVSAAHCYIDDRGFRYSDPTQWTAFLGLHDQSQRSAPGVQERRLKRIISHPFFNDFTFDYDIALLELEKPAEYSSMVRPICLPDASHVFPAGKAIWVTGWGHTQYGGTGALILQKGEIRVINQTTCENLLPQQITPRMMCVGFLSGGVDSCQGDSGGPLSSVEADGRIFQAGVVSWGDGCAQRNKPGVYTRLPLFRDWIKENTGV
- Test Description: FRET-based kinetic analysis of matriptase cleavage
- Assay type: biochemical
- Experimental Context: Abz/Dnp-labelled 6-mer peptide, 10 nM matriptase, PBS, 37°C, Michaelis-Menten fit, n = 3
Entries annotated with measured Km
Quantity: Km (µM)

Substance: LSGRSDNH [Mtp-control, reference compound]
Number: 191

Substance: GAKSRR [MtpB9]
Number: 18.7

Substance: HYKGRK [MtpC9]
Number: 29.1

Substance: VPRGRR [MtpC5]
Number: 12.5

====

- Test System: urokinase-type plasminogen activator (uPA) (Homo sapiens)
- Test Description: FRET substrate stability against uPA
- Assay type: in vitro ADME
- Experimental Context: 30 μM Abz/Dnp peptide, 10 nM uPA, appropriate buffer, 37°C, 100 min (6,000 s), fluorescence, three replicates
Quantity: substrate cleavage by uPA

Substance: ENLYFQG [TEV-control, TEV protease substrate, non-cleavable control for matriptase, reference compound]
Test System: urokinase-type plasminogen activator (uPA) (Homo sapiens)
Result: No detectable cleavage

Substance: LSGRSDNH [Mtp-control, reference compound]
Test System: urokinase-type plasminogen activator (uPA) (Homo sapiens)
Result: No detectable cleavage

All values here come from paper PMC12272249.
